Hey, just so you know, these numbers are from the FLAb antibody collection (doi:10.1101/2023.12.08.570889).

target: FXI; test: Kd (SPR)
experimental_readout: pKd
Answers are plain numbers, as −log10 of the molar value.

Reference set, count: 4
binder: unnamed (protein) chain 1: EVQLLESGGGLVQPGGSLRLSCAASGFTFSSYAMDWVRQAPGKGLEWVSGISGDGGSTVYADSVKGRFTISRDNSKNTLYLQMNSLRAEDTAVYYCTRGGPAYYYAFDYWGQGTTVTVSS chain 2: DIQMTQSPSSLSASVGDRVTITCQASQDISNYLNWYQQKPGKAPKLLIYDASNLETGVPSRFSGSGSGTDFTFTISSLQPEDIATYYCQQADSFPVTFGGGTKVEIK
pKd: 6.07
//
binder: unnamed (protein) chain 1: EVQLLESGGGLVQPGGSLRLSCAASGFTFSQYGMDWVRQAPGKGLEWVSGIGPSGGSTVYADSVKGRFTISRDNSKNTLYLQMNSLRAEDTAVYYCTRDGPSYYYGFDVWGQGTTVTVSS chain 2: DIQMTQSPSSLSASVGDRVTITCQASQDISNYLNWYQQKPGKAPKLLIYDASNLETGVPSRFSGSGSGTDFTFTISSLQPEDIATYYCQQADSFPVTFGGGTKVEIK
pKd: 7.02
//
binder: unnamed (protein) chain 1: EVQLLESGGGLVQPGGSLRLSCAASGFTFSQYGMDWVRQAPGKGLEWVSGIGPSGGSTVYADSVKGRFTISRDNSKNTLYLQMNSLRAEDTAVYYCTRGGPWYYYAFDVWGQGTTVTVSS chain 2: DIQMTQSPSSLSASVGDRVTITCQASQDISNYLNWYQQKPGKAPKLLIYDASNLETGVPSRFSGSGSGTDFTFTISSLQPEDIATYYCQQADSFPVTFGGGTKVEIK
pKd: 6.55
//
binder: unnamed (protein) chain 1: EVQLLESGGGLVQPGGSLRLSCAASGFTFSSYGMDWVRQAPGKGLEWVSGISADGGSTVYADSVKGRFTISRDNSKNTLYLQMNSLRAEDTAVYYCTRGGPAYYYAFDVWGQGTTVTVSS chain 2: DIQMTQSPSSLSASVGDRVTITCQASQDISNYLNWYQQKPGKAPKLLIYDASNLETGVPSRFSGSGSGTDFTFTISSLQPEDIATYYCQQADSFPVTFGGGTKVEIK
pKd: 6.61

Now consider the entry below.
unnamed (protein) chain 1: EVQLLESGGGLVQPGGSLRLSCAASGFTFSQYGMDWVRQAPGKGLEWVSGIGPSGGSTVYADSVKGRFTISRDNSKNTLYLQMNSLRAEDTAVYYCTRGGPSYYYAFDVWGQGTTVTVSS chain 2: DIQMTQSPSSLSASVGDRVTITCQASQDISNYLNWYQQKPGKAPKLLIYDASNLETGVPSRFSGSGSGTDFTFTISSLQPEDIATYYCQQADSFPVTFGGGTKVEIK has a reported pKd of 5.86
